System: Renilla luciferase (RLuc)
Assay: residual bioluminescent signal relative to negative (DMSO) control; higher = less interference (more residual luciferase signal)
Conditions: metal salt concentration 0.01 mM; screening conditions (50 mM Tris-HCl, […] KH2PO4, […] NaCl, 0.25 mM EDTA, 0.1% BSA, 0.3 M sodium ascorbate, pH 7.4)

{"compound": "[Cl][Pt-2]([Cl])([Cl])[Cl].[K+].[K+] [potassium tetrachloroplatinate(II)]", "system-under-test": "Renilla luciferase (RLuc)", "output-unit": "%", "residual bioluminescent signal": 96.1}
{"compound": "O=S(=O)([O-])[O-].[Mn+2] [manganese(II) sulfate]", "system-under-test": "Renilla luciferase (RLuc)", "output-unit": "%", "residual bioluminescent signal": 103}
{"compound": "O.O.O.O.O.O.O.O.O.O.O=S(=O)([O-])[O-].[Na+].[Na+] [sodium sulfate]", "system-under-test": "Renilla luciferase (RLuc)", "output-unit": "%", "residual bioluminescent signal": 111}
{"compound": "[Cl][Fe]([Cl])[Cl] [iron(III) chloride]", "system-under-test": "Renilla luciferase (RLuc)", "output-unit": "%", "residual bioluminescent signal": 94.1}
{"compound": "[Cl][Fe][Cl] [iron(II) chloride]", "system-under-test": "Renilla luciferase (RLuc)", "output-unit": "%", "residual bioluminescent signal": 85.9}
{"compound": "CC#N.CC#N.CC#N.CC#N.F[B-](F)(F)F.[Cu+] [tetrakis(acetonitrile)copper(I) tetrafluoroborate]", "system-under-test": "Renilla luciferase (RLuc)", "output-unit": "%", "residual bioluminescent signal": 103}

----------
Each record here notes measured residual bioluminescent signal.
System: NanoLuc luciferase (NLuc)
Experiment: residual bioluminescent signal relative to negative (DMSO) control; higher = less interference (more residual luciferase signal)
Conditions: metal salt concentration 1 mM; screening conditions (PBS, 0.1% BSA, pH 7.4)

{"compound": "[Cl][Fe][Cl] [iron(II) chloride]", "output-unit": "%", "residual bioluminescent signal": 10.5}
{"compound": "O=C([O-])[O-].[K+].[K+] [potassium carbonate]", "output-unit": "%", "residual bioluminescent signal": 97.6}
{"compound": "O=S(=O)([O-])[O-].[Mn+2] [manganese(II) sulfate]", "output-unit": "%", "residual bioluminescent signal": 92.7}
{"compound": "O.O.O.O.O.O.O.O.O.O.O=S(=O)([O-])[O-].[Na+].[Na+] [sodium sulfate]", "output-unit": "%", "residual bioluminescent signal": 96}
{"compound": "[Cl][Pt-2]([Cl])([Cl])[Cl].[K+].[K+] [potassium tetrachloroplatinate(II)]", "output-unit": "%", "residual bioluminescent signal": 7.81}
{"compound": "O=C([O-])[O-].[Cs+].[Cs+] [caesium carbonate]", "output-unit": "%", "residual bioluminescent signal": 102}
{"compound": "[Cl-].[Na+] [sodium chloride]", "output-unit": "%", "residual bioluminescent signal": 102}

----------
Tested on: NanoLuc luciferase (NLuc)
Test: residual bioluminescent signal relative to negative (DMSO) control; higher = less interference (more residual luciferase signal)
Conditions: metal salt concentration 5 mM; screening conditions (PBS, 0.1% BSA, pH 7.4)
Each item that follows carries a reported residual bioluminescent signal.

{"molecule": "CC#N.CC#N.CC#N.CC#N.F[B-](F)(F)F.[Cu+] [tetrakis(acetonitrile)copper(I) tetrafluoroborate]", "residual bioluminescent signal (%)": 0.354}
{"molecule": "[Cl-].[Na+] [sodium chloride]", "residual bioluminescent signal (%)": 99.4}
{"molecule": "O=S(=O)([O-])[O-].[Mn+2] [manganese(II) sulfate]", "residual bioluminescent signal (%)": 73.4}
{"molecule": "O.O.O.O.O.O.O.O.O.O.O=S(=O)([O-])[O-].[Na+].[Na+] [sodium sulfate]", "residual bioluminescent signal (%)": 95.6}
{"molecule": "O.O.O.O.O.O.O.O=S(=O)([O-])[O-].[Mg+2] [magnesium sulfate]", "residual bioluminescent signal (%)": 95.5}
{"molecule": "[Cl][Fe]([Cl])[Cl] [iron(III) chloride]", "residual bioluminescent signal (%)": 0.189}

meta.source: the supplement of paper PMC11628255
